- protocol: Candida albicans biofilm persister killing – 4-compound mixtures, primary screen (AID 1242);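 note: compounds exposed to preformed 24 h biofilms for 48 h; 0% = untreated biofilm control and 100% = clotrimazole plus chlorhexidine kill blank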
- conditions: C. albicans biofilm persisters + clotrimazole, fluorescence viability; primary screen in compound mixtures of four per well; measured here: individual compound retest; at 61 µM; stronger effect = higher value
Screen size: about 120,000 compounds; about 20 (0.02%) were called active. For the sample, actives were picked, then their nearest neighbours and some compounds at random.
reported endpoint: inhibition
Could you kindly put the unit after your number?

CCN1/C(=C\c2ccc3ccccc3[n+]2CC)Sc2cc(C)ccc21    72.3%
Cn1nc(C(C)(C)C)c([N+](=O)[O-])c1C(N)=O    -53.4%
CC(NCc1nc2ccccc2n1C)C12CC3CC(CC(C3)C1)C2 (centres undefined)    0.64%

Now consider a different molecule.
Recorded inhibition for Cc1ccc2cc(/C=N/NC(=O)[C@@H]3CCCN3)c(Cl)nc2c1 , please?
-44.1%

---

- protocol: Candida albicans biofilm persister killing – 4-compound mixtures, primary screen (AID 1242)
- conditions: C. albicans biofilm persisters + clotrimazole, fluorescence viability, primary screen in compound mixtures, stronger effect = higher value; at 7.6 µM unless noted
Hit rate of the full screen: of about 120,000 compounds, about 20 (0.02%) were called active. The entries come from a sample that favours actives as a whole.
reported endpoint: inhibition (%)
Answers are plain numbers, in %.

CCOC(=O)CCNC(=O)N1CCCC(C(=O)c2ccccc2SC)C1 (centres undefined)    27
O=C(NCCCN1CCOCC1)c1ccccc1NS(=O)(=O)c1ccc(Br)cc1    20.1
CC(=O)Nc1ccc(S(=O)(=O)Nc2nccc(/C=C/c3ccccc3F)n2)cc1    25.1
CCC(C)(C)NC(=O)/C=C/c1cc(OC)c(OC)c(S(=O)(=O)N2CCc3ccccc32)c1    12.1
O=C(Nc1ccc(S(=O)(=O)Nc2nccs2)cc1)c1cc(=O)[nH]c2ccccc12    21.7

Go through the items and report each one's inhibition.
1. S=C(NCCc1ccccc1)N1CCn2cccc2C1c1ccncc1 (centres undefined)
2. O=C(CC1CCCCC1)NCc1ccc(F)cc1
3. COc1ccccc1CNC(=O)CNC(=O)c1cn(-c2ccccc2OC)c(=O)c2ccccc12

1. 11.1
2. 14.7
3. 24.6

---

- protocol: Candida albicans biofilm persister killing – 4-compound mixtures, primary screen (AID 1242)
- conditions: C. albicans biofilm persisters + clotrimazole, fluorescence viability; primary screen in compound mixtures of four per well; at 7.6 µM
Hit rate of the full screen: of about 120,000 compounds, about 20 (0.02%) were called active.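 Rule for the calls: active = inhibition above 30.3% in the primary screen of four-compound pools, then above 30% when the compound was retested; inconclusive = passed the primary limit but could not be retested; inactive = the rest.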 The list comes from a sample in which actives are over-represented; it also holds close analogues and randomly drawn compounds.
Log the outcome using a class from active, inactive

Illustrative cases are given below, each with its answer.
Cc1ccc2cc(/C=N/NC(=O)[C@@H]3CCCN3)c(Cl)nc2c1    inactive
CCN1/C(=C\c2ccc3ccccc3[n+]2CC)Sc2cc(C)ccc21    active
Cn1nc(C(C)(C)C)c([N+](=O)[O-])c1C(N)=O    inactive

Okay, next one:
Identify the outcome logged in this assay for the compound shown: CC(NCc1nc2ccccc2n1C)C12CC3CC(CC(C3)C1)C2 (centres undefined)
inactive

---

- protocol: Candida albicans biofilm persister killing – 4-compound mixtures, primary screen (AID 1242)
- conditions: C. albicans biofilm persisters + clotrimazole, fluorescence viability, primary screen in compound mixtures, stronger effect = higher value; at 7.6 µM unless noted
Among all 120,000 compounds or so, about 20 (0.02%) were called active. The sample as a whole holds a higher share of actives than the screen did.
reported endpoint: inhibition (%)
One number for each entry, in %.

Recorded results for 2 molecules are shown here.
COc1ccc(N=C(C)c2sc3ccccc3c2O)cc1    24.2
O=C(Cc1ccc(Cl)cc1)NCc1nc(-c2ccccc2)no1    11.6

Request the reported inhibition associated with Cc1nc(N)[nH]c(=O)c1Oc1cccc(C(F)(F)F)c1
25.2

---

- protocol: Candida albicans biofilm persister killing – 4-compound mixtures, primary screen (AID 1242)
- conditions: C. albicans biofilm persisters + clotrimazole, fluorescence viability, primary screen in compound mixtures, stronger effect = higher value; at 7.6 µM unless noted
Screen size: about 120,000 compounds; about 20 (0.02%) were called active. Only a selection was taken, and actives are over-represented in it overall.
reported endpoint: inhibition

Check out these entries, answers already filled in.
O=C(c1cn2ccccc2n1)N1CCc2c([nH]c3ccccc23)C1c1ccccn1 (centres undefined)    0.31% (inactive)
COc1ccccc1N1CCN(C(=O)CSc2ncnc3c2cnn3-c2ccc(C)c(C)c2)CC1    19.7% (inactive)
CCOC(=O)c1c(CN(C)C)n(-c2ccccc2)c2cc(Br)c(O)cc12    6.02% (inactive)

Alright, here's another compound for you.
inhibition lookup needed for CC(=O)Nc1ccc(OCC(=O)NCc2ccc(C)cc2)cc1 , thanks.
10.5% (inactive)

---

So I've got a bunch of molecules here, and I need their inhibition values.
- protocol: Candida albicans biofilm persister killing – 4-compound mixtures, primary screen (AID 1242)
- conditions: C. albicans biofilm persisters + clotrimazole, fluorescence viability, primary screen in compound mixtures, stronger effect = higher value; at 7.6 µM unless noted
The whole screen tested about 120,000 compounds, of which about 20 (0.02%) were called active. What follows is part of a selection rich in actives, with near analogues and random picks from the rest.
Numbers only, in %.

Below are worked cases with known answers.
Cc1ccc(Cl)cc1NC(=O)COC(=O)CC(C)(C)C    18.1
CCCCN(CC)CCNC(=O)CCNC(=O)Cn1ccc2ccccc2c1=O    8.03
CCN1/C(=C/c2ccc3ccc(C)cc3[n+]2CC)Sc2ccccc21    9.78
Cc1cccc(N2CCN(c3ccc(C(N)=O)cc3[N+](=O)[O-])CC2)c1C    16.6
COc1ccc(C(=O)N/N=C(\C)CC(=O)Nc2ccc(Cl)cn2)cc1    14.5

Hey, can you go through the list below and give me inhibition for every item?
1. NC(=O)Cc1nc2scc(-c3ccc(Cl)cc3)c2c(=O)[nH]1
2. CCC(=O)/C=C1\Sc2ccccc2N1CC
3. Cc1ccc(Cl)c(OCC(=O)NN2CCN(C)CC2)c1

[4.85, 17, 16.5]

---

- protocol: Candida albicans biofilm persister killing – 4-compound mixtures, primary screen (AID 1242);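 note: compounds exposed to preformed 24 h biofilms for 48 h; 0% = untreated biofilm control and 100% = clotrimazole plus chlorhexidine kill blank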
- conditions: C. albicans biofilm persisters + clotrimazole, fluorescence viability, primary screen in compound mixtures, stronger effect = higher value; at 7.6 µM unless noted
The whole screen tested about 120,000 compounds, of which about 20 (0.02%) were called active. This is one part of a sample in which actives are shown more often than they occur.
reported endpoint: inhibition

Past entries and their recorded results:
CC1=CC=CC2=N/C(=N\S(=O)(=O)c3ccc(F)cc3F)c3ccccc3CN12    14.1% (inactive)
Cc1cc2nc(C(F)(F)F)cc(-c3cccs3)n2n1    8.23% (inactive)
CC(C)(C)n1nc2c(c1NC(=O)c1cc3ccccc3o1)CSC2    8.07% (inactive)
CCc1ccc(Nc2nnc(SCC(=O)c3ccc4c(c3)NC(=O)CO4)s2)cc1    10.2% (inactive)
Cc1ccc(S(=O)(=O)/N=C(\N)c2ccc(F)cc2)cc1    3.79% (inactive)

Kindly review the next compound as well.
Data request, read-out inhibition, for CC(OC(=O)c1ccccc1OCc1ccc(Cl)cc1)C(N)=O (stereo unspecified)
9.56% (inactive)

---

- protocol: Candida albicans biofilm persister killing – 4-compound mixtures, primary screen (AID 1242);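 note: compounds exposed to preformed 24 h biofilms for 48 h; 0% = untreated biofilm control and 100% = clotrimazole plus chlorhexidine kill blank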
- conditions: C. albicans biofilm persisters + clotrimazole, fluorescence viability, primary screen in compound mixtures, stronger effect = higher value; at 7.6 µM unless noted
In all, about 120,000 compounds went through this assay and about 20 (0.02%) were called active. Shown is part of a subset that was picked to be rich in actives.
For each entry below, report its inhibition value.
Give bare numbers, in %.

Illustrative cases are given below, each with its answer.
C#CCNc1ccc(C(=O)OCC)cc1    15.4
Cc1cc(NC(=O)CSCc2ccccc2C)no1    13.5

Kindly give each listed record's inhibition.
1. CC(=O)Cn1ncc(N2CCOCC2)c(Br)c1=O
2. CSc1nc(C)nc(C2CC2)c1C#N
3. O=C(Nc1ccc(Cl)cc1)/C(=C1\CCCN1)[N+](=O)[O-]
4. CCOC(=O)CN1CCC(c2ccccc2)CC1
5. CCCCC(NC(=O)c1cccc(Br)c1)C(=O)O (stereo unspecified)
6. O=C(OCc1ccc([N+](=O)[O-])cc1)c1ccccn1
7. O=C(NCCN1CCOCC1)c1ccc2c(c1)N(Cc1ccc(Cl)cc1)CCS2
8. N=c1c2c3c(sc2ncn1N)CCCC3

[-3.05, 26.1, 18.1, 13.7, 22.6, 15, -21.2, 20.4]

---

- protocol: Candida albicans biofilm persister killing – 4-compound mixtures, primary screen (AID 1242);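 note: compounds exposed to preformed 24 h biofilms for 48 h; 0% = untreated biofilm control and 100% = clotrimazole plus chlorhexidine kill blank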
- conditions: C. albicans biofilm persisters + clotrimazole, fluorescence viability, primary screen in compound mixtures, stronger effect = higher value; at 7.6 µM unless noted
Out of some 120,000 compounds screened, about 20 (0.02%) were called active. What follows is part of a selection rich in actives, with near analogues and random picks from the rest.
For each entry below, report its inhibition value.
One number for each entry, in %.

These recorded examples may help you get a feel for the data.
CC(C)(C)OC(=O)NCCCCCC(=O)N/N=C/c1coc2ccccc2c1=O    21.8
CN(c1ccccc1)S(=O)(=O)c1ccc(Cl)c(C(=O)OCC(N)=O)c1    9.93
COCCn1c(C)cc(C(=O)CSc2nc3ccccc3c(=O)n2C(C)COC)c1C (stereo not drawn)    8.22

# batch: return inhibition for each of the 5 molecules below
1. Cc1ccc(OCC(=O)NC(C)c2ccccc2)c([N+](=O)[O-])n1 (stereo not drawn)
2. Cn1nnnc1SCC(=O)NNC(=O)c1ccc(Br)cc1
3. CC(=O)NC(=S)Nc1ccc(NC(=O)c2cccnc2)cc1
4. CC(=O)Nc1ccc(S(=O)(=O)NC2(C(F)(F)F)C(=O)NC(C)=C2C#N)cc1 (stereo not drawn)
5. O=C(c1cccc([N+](=O)[O-])c1)N1CCN(C(=O)c2ccco2)CC1

8.35
11.2
26.7
25.1
0.32
